Cited source: the supplement of paper PMC10567573

B1: WEE1 (parent)
chain: FLGSSFSPVRCGGPGDASPRGCGA

- Variants of: B1
- Procedure summary: protein stability index of a GFP-peptide fusion (GPS, HEK-293T) (PSI 1-6); higher = more stable;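 also: lentivirally expressed fusions sorted by FACS into six bins by GFP to DsRed ratio, PSI derived from sequencing read proportions per bin multiplied by bin number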
- Cond: c terminus: a fixed tail appended
Readout kind: protein stability index
Number only, no unit.

Worked examples, 5 variants total:
C11A; 2.78
A24P; 1.58
S4G; 2.16
F6Q; 3.41
G12H; 3.11

Using the record for `G23S` , report its protein stability index.
1.82

Now give it for `G12T` too.
1.63

Now give it for `S7Y` too.
2.16

Now give it for `P8A` too.
1.38

Now give it for `S4Q` too.
1.86

Now give it for `S7Q` too.
1.93
